# Test system: Candida tropicalis
# assay-overview: Antifungal activity against Candida tropicalis C 131 at 100 uM after 24 hrs relative to amphotericin B
# Format: functional
assay-metric: inhibition at 100 µM
Note to self: number, then unit, no commentary.

Query: inhibition at 100 µM; subject: "H-HYRWGKFV-NH2"
0%

inhibition at 100 µM lookup needed for "H-HFRWGKYV-NH2" , thanks.
0%

Tell me the measured inhibition at 100 µM of "H-HFRWGKFV-NH2" , please.
9%

Consider the substance "H-HFRWGRFV-NH2" and give its measured inhibition at 100 µM.
1%

What value of inhibition at 100 µM has been recorded for this entry: "H-HFKWGKFV-NH2"
0%

Fill in the blank: the reported inhibition at 100 µM of "H-HFRWGKPV-NH2" is ____.
0%

Look at this substance and give its reported inhibition at 100 µM. "H-HYKWGKYV-NH2"
0%

Which inhibition at 100 µM is listed for "H-HYKWGKFV-NH2" ?
0%

Which value of inhibition at 100 µM has been reported for "H-HFKWGKYV-NH2" in the records?
0%

Consider the substance "H-HYKWGRFV-NH2" and give its measured inhibition at 100 µM.
0%
